viability, T/C reference
# Test system: SK-OV-3 multi-cell spheroids, viability
# assay-method-text: Anticancer human tumor SK-OV-3 cell line growth inhibition [IpAb];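 also: viability read after seven days of drug exposure; percent of DMSO vehicle control luminescence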
# run-conditions: second compound 0.316 µM; first compound 3.16 µM; hits give low values
# Description: Combinatorial screen of targeted agents with ipatasertib and abemaciclib in multi-cell type tumor spheroids […] Compounds. […] If the clinical Cmax for an agent had not been determined, the highest concentration tested was 10 microM. NCI60 Cell Culture. […] The optimal seeding densities for each of the cell lines at each time point assessed were determined prior to performing the concentration response studies. […]
Field: numeric (%). Do not append units.

Observe how each entry below is paired with its result.
{"compound": "CCCS(=O)(=O)Nc1ccc(F)c(C(=O)c2c[nH]c3ncc(-c4ccc(Cl)cc4)cc23)c1F + CC(C)NCC(C(=O)N1CCN(c2ncnc3c2C(C)CC3O)CC1)c1ccc(Cl)cc1", "viability, T/C (%)": 28.2}
{"compound": "Cn1ncc(Cl)c1-c1cc(C(=O)NC(CN)Cc2cccc(F)c2)sc1Cl (stereo not given) + CCN1CCN(Cc2ccc(Nc3ncc(F)c(-c4cc(F)c5nc(C)n(C(C)C)c5c4)n3)nc2)CC1", "viability, T/C (%)": 8.84}
{"compound": "Cn1ncc(Cl)c1-c1cc(C(=O)NC(CN)Cc2cccc(F)c2)sc1Cl (stereo not given) + CC(C)NCC(C(=O)N1CCN(c2ncnc3c2C(C)CC3O)CC1)c1ccc(Cl)cc1", "viability, T/C (%)": 8.71}
{"compound": "Cn1nccc1Nc1nccc(-c2ccn(C(CO)c3ccc(Cl)c(F)c3)c(=O)c2)n1 (stereo not given) + CCN1CCN(Cc2ccc(Nc3ncc(F)c(-c4cc(F)c5nc(C)n(C(C)C)c5c4)n3)nc2)CC1", "viability, T/C (%)": 54.4}
{"compound": "CC1(C)CCC(CN2CCN(c3ccc(C(=O)NS(=O)(=O)c4ccc(NCC5CCOCC5)c([N+](=O)[O-])c4)c(Oc4cnc5[nH]ccc5c4)c3)CC2)=C(c2ccc(Cl)cc2)C1 + CCN1CCN(Cc2ccc(Nc3ncc(F)c(-c4cc(F)c5nc(C)n(C(C)C)c5c4)n3)nc2)CC1", "viability, T/C (%)": 31.5}

The compound listed as Cc1nc(NC(=O)N2CCCC2C(N)=O)sc1-c1ccnc(C(C)(C)C(F)(F)F)c1 (stereo not given) + CCN1CCN(Cc2ccc(Nc3ncc(F)c(-c4cc(F)c5nc(C)n(C(C)C)c5c4)n3)nc2)CC1 shows viability, T/C equal to 7.93

The compound listed as Cn1nccc1Nc1nccc(-c2ccn(C(CO)c3ccc(Cl)c(F)c3)c(=O)c2)n1 (stereo not given) + CC(C)NCC(C(=O)N1CCN(c2ncnc3c2C(C)CC3O)CC1)c1ccc(Cl)cc1 shows viability, T/C equal to 29.7

The compound listed as C=CC(=O)N1CCN(c2nc(=O)n(-c3c(C)ccnc3C(C)C)c3nc(-c4c(O)cccc4F)c(F)cc23)C(C)C1 (stereo not given) + CCN1CCN(Cc2ccc(Nc3ncc(F)c(-c4cc(F)c5nc(C)n(C(C)C)c5c4)n3)nc2)CC1 shows viability, T/C equal to 62.8

The compound listed as C=CC(=O)N1CCN(c2nc(=O)n(-c3c(C)ccnc3C(C)C)c3nc(-c4c(O)cccc4F)c(F)cc23)C(C)C1 (stereo not given) + CC(C)NCC(C(=O)N1CCN(c2ncnc3c2C(C)CC3O)CC1)c1ccc(Cl)cc1 shows viability, T/C equal to 39.5

The compound listed as CCCS(=O)(=O)Nc1ccc(F)c(C(=O)c2c[nH]c3ncc(-c4ccc(Cl)cc4)cc23)c1F + CCN1CCN(Cc2ccc(Nc3ncc(F)c(-c4cc(F)c5nc(C)n(C(C)C)c5c4)n3)nc2)CC1 shows viability, T/C equal to 44.1
